target: HTH-type transcriptional regulator ExsA (Pseudomonas aeruginosa (strain ATCC 15692 / PAO1 / 1C / PRS 101 / LMG12228), UniProt P26993); experiment: Inhibition of Pseudomonas aeruginosa PAO1 ExsA DNA binding activity
Measure name: IC50 (µM)
Answer with a number only, understood to be in µM.

The cases that follow already have their IC50 on record.
>  <Chem smiles>
CC(=O)c1ccc(/C=C/C(=O)Nc2ccc(-c3nc4c(CC(=O)O)cc([N+](=O)[O-])cc4n3O)cc2)cc1

>  <IC50 (µM)>
3.7

$$$$
>  <Chem smiles>
CSc1ccc(/C=C/C(=O)Nc2ccc(-c3nc4ccc(C#N)cc4n3O)cc2)cc1

>  <IC50 (µM)>
7.3

$$$$
>  <Chem smiles>
CSc1ccc(/C=C/C(=O)Nc2ccc(-c3nc4ccc([N+](=O)[O-])cc4n3O)cc2)cc1

>  <IC50 (µM)>
10.4

$$$$

Moving on to the next compound.
Find the measured IC50 of `O=C(/C=C/c1ccc(-n2ccnc2)nc1)Nc1ccc(-c2nc3ccc([N+](=O)[O-])cc3n2O)cc1` and report it.
31.2

----------
target: HTH-type transcriptional regulator ExsA (Pseudomonas aeruginosa (strain ATCC 15692 / PAO1 / 1C / PRS 101 / LMG12228)); assay: Inhibition of Pseudomonas aeruginosa PAO1 ExsA DNA binding activity
Measure name: pIC50
Units for pIC50: none; it is -log10 of a concentration expressed in mol/L.

The cases that follow already have their pIC50 on record.
>  <Chem smiles>
O=C(/C=C/c1ccc(C(F)(F)F)nc1)Nc1ccc(-c2nc3ccc([N+](=O)[O-])cc3n2O)cc1

>  <pIC50>
5.17

$$$$
>  <Chem smiles>
CC(=O)c1ccc(/C=C/C(=O)Nc2ccc(-c3nc4c(CC(=O)O)cc([N+](=O)[O-])cc4n3O)cc2)cn1

>  <pIC50>
5.34

$$$$
>  <Chem smiles>
CSc1ccc(/C=C/C(=O)Nc2ccc(-c3nc4ccc(C#N)cc4n3O)cc2)cn1

>  <pIC50>
5.46

$$$$

Moving on to the next compound.
Find the measured pIC50 of `CSc1ccc(/C=C/C(=O)Nc2ccc(-c3nc4ccc([N+](=O)[O-])cc4n3O)cc2)cn1` and report it.
5.16

----------
Molecular target: HTH-type transcriptional regulator ExsA (Pseudomonas aeruginosa (strain ATCC 15692 / PAO1 / 1C / PRS 101 / LMG12228), UniProt P26993)
Sequence (P26993 whole entry): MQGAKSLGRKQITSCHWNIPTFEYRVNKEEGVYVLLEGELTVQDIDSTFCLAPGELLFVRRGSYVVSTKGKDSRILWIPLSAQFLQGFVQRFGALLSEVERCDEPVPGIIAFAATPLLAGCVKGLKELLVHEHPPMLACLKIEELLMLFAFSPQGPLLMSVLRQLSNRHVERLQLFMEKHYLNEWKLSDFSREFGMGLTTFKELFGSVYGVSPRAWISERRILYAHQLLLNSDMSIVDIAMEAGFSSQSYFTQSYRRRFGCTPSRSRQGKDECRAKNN
Test: Inhibition of Pseudomonas aeruginosa 388 ExsA DNA binding activity
Measure name: pIC50
Units for pIC50: none; it is -log10 of a concentration expressed in mol/L.

>  <Chem smiles>
CC(=O)c1ccc(/C=C/C(=O)Nc2ccc(-c3nc4ccc(C#N)cc4n3O)cc2)cc1

>  <pIC50>
4.89

$$$$
>  <Chem smiles>
CC(=O)c1ccc(/C=C/C(=O)Nc2ccc(-c3nc4ccc([N+](=O)[O-])cc4n3O)cc2)cn1

>  <pIC50>
5.12

$$$$

Moving on to the next molecule.
Find the measured pIC50 of `CC(=O)c1ccc(/C=C/C(=O)Nc2ccc(-c3nc4ccc([N+](=O)[O-])cc4n3O)cc2)cc1` and report it.
5.52

Source of measurements: ChEMBL document CHEMBL1155481
